Where these numbers come from: ChEMBL document CHEMBL3433997

inhibition by entry:
- experimental.system: Solute carrier family 2, facilitated glucose transporter member 1 (Homo sapiens) (UniProt P11166)
- Sequence (P11166 whole entry): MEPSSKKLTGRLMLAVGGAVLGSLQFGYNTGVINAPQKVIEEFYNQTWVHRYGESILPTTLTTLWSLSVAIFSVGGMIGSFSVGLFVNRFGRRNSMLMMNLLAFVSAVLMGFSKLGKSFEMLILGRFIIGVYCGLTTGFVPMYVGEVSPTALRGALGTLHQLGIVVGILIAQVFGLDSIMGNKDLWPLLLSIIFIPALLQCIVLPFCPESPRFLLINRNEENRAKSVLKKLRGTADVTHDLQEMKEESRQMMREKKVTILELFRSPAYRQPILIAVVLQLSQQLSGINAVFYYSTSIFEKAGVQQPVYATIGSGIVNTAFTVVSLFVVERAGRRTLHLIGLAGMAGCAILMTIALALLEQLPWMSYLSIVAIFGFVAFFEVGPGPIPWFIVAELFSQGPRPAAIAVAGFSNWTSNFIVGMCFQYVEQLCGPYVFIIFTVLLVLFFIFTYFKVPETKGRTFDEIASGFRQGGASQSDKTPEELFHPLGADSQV
- procedure.text: ST_JUDE_LEISH: Cytotoxicity at 2uM final concentration against transgenic Leishmania Mexicana promastigotes LmGLUT1 that are glucose transport deficient and complemented with the human glucose transporter GLUT1. Activity is measured by DNA content using SYBR green in vitro
- Assay type: functional
# number only, unit % dropped from output

Below, each entry is followed by its recorded inhibition result.
> print(dat)
                                   compound  measurement.type  unit.annotation  recorded.number
1  CCCC(CNCc1ccc(Cl)c(C(F)(F)F)c1)CNc1nc2cnccc2[nH]1 (stereo unspecified)        inhibition                %             13.5
2          COc1ccc(CNc2ccnc3cc(OC)ccc23)cc1        inhibition                %            -1.06
3             O=C(NC(=S)NCc1ccncc1)c1ccccc1        inhibition                %             2.06
4  O=C(Nc1ccc(F)cc1)NC1CCN(CCCCCNC(=O)C2CC2c2ccc(Cl)c(Cl)c2)CC1 (stereo unspecified)        inhibition                %             1.84
5  O=C(C=Cc1ccc(Cl)c(Cl)c1)NCCCCCN1CCC(CCCNS(=O)(=O)c2cccc(C(F)(F)F)c2)CC1        inhibition                %             0.51

INPUT: Query: inhibition; subject: Cc1cc(NC(=O)c2ccco2)ccc1OC1CCN(Cc2ccc(C#N)cc2)CC1
OUTPUT: 1.63

INPUT: Query: inhibition; subject: COc1ccc2ccc(OC)c(CNCCCCCCNCc3c(OC)ccc4ccc(OC)cc34)c2c1
OUTPUT: 5.41

INPUT: Query: inhibition; subject: CCCCCCN1CCCN(Cc2cccc(NC(=O)c3cc4ccccc4s3)c2)CC1
OUTPUT: 2.73

INPUT: Query: inhibition; subject: CN1CCN(c2ccc(Nc3ncc(C#N)c(Nc4ccccc4C(N)=O)n3)cc2)CC1
OUTPUT: 75.6

INPUT: Query: inhibition; subject: NS(=O)(=O)c1ccc(CNc2ccc3ncc(-c4ccc(Cl)cc4)n3n2)cc1
OUTPUT: -0.09

INPUT: Query: inhibition; subject: Cc1cnc(C(=O)Nc2cccc(-c3cccc(-c4nc5cccc(C)c5[nH]4)c3)c2)cn1
OUTPUT: 4.11

* * *

inhibition by entry:
- experimental.system: Glucose transporter (Leishmania mexicana)
- procedure.text: ST_JUDE_LEISH: Cytotoxicity at 2uM final concentration against transgenic Leishmania Mexicana promastigotes LmGT2 that are glucose transport deficient and complemented with the L. Mexicana glucose transporter 2. Activity is measured by DNA content using SYBR green in vitro
- Assay type: functional
# number only, unit % dropped from output

> print(dat)
                         structure.notation                       experimental.system  unit.annotation  recorded.number
1  O=C(/C=C/c1ccc(Cl)c(Cl)c1)NCCCCCN1CCC(NC(=O)Nc2ccc(Cl)c(Cl)c2)CC1  Glucose transporter (Leishmania mexicana)                %             0.09
2  COCCCNC(=O)c1ccc(O)c(-c2cc(Cl)cc(Cl)c2)c1  Glucose transporter (Leishmania mexicana)                %              1.9
3  COc1ccc(CNC(=N)Nc2nc(-c3ccc(OCCCn4ccnc4)cc3)cs2)cc1  Glucose transporter (Leishmania mexicana)                %             2.73
4  NS(=O)(=O)c1ccc(CNc2ccc3ncc(-c4ccc(Cl)cc4)n3n2)cc1  Glucose transporter (Leishmania mexicana)                %            -0.35

INPUT: Query: inhibition; subject: O=C(/C=C/c1ccc(Cl)c(Cl)c1)NCCCCCN1CCC(c2cn[nH]c2-c2ccccc2)CC1
OUTPUT: 1.87

INPUT: Query: inhibition; subject: COc1cccc(CN2CCCN(Cc3cccc(NC(=O)c4ccc(-c5ccccc5)cc4)c3)CC2)c1
OUTPUT: -6.64
